B1: C2CD2L (parent)
chain: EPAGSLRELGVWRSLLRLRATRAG

- Variants of: B1
- assay-name: protein stability index of a GFP-peptide fusion (GPS, HEK-293T) (PSI 1-6); higher = more stable;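 further: lentivirally expressed fusions sorted by FACS into six bins by GFP to DsRed ratio, PSI derived from sequencing read proportions per bin multiplied by bin number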
- stated-conditions: c terminus: a fixed tail appended
readout-label: protein stability index
Answers are plain numbers.

As a guide, the following entries are already answered.
-- ask What does the record list as protein stability index for "EPAGSLRELNVWRSLLRLRATRAG" ?
-- reply 4.3

-- ask What would you report for "EPAGSLRELGVWRSLLRLRATRYG" ?
-- reply 2.75

-- ask What would you report for "EPAGSLRELGVWRSLLRLIATRAG" ?
-- reply 2.24

Please state protein stability index for every variant in the list that follows.
1. EPAGSLRELGVWRSLLRARATRAG
2. EPAGALRELGVWRSLLRLRATRAG
3. EPAGSLRELGVWRSLLRSRATRAG
4. EPPGSLRELGVWRSLLRLRATRAG

-- reply
1. 3.73
2. 2.31
3. 3.53
4. 1.63

Data provenance: the supplement of paper PMC10567573
